Each item that follows carries a reported pIC50.
Molecular target: IL-23R (Homo sapiens, UniProt Q5VWK5)
Sequence (Q5VWK5 24-629): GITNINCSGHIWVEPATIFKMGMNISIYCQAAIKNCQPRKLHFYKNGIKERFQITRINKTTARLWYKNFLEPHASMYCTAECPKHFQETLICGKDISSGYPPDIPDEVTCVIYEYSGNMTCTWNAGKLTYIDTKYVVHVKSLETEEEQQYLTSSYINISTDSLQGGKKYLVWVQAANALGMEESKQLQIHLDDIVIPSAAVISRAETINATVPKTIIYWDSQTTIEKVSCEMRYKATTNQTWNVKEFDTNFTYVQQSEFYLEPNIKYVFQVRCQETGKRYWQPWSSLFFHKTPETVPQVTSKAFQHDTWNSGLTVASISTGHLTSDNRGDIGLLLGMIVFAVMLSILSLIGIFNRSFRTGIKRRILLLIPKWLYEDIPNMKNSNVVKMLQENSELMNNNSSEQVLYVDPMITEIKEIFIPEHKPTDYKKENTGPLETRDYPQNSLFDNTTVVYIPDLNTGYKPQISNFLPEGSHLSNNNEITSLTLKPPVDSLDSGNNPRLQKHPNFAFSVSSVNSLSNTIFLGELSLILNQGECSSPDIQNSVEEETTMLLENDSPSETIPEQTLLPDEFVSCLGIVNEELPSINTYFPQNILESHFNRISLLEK
Assay: DB cells IL23R pSTAT3 cell assay (pStat3 HTRF)
Format: cell-based
Details: Table E3; DB cells, IL-23 0.5 nM, 30 minutes at 37° C.; read-out: pStat3 HTRF (IC50)
pIC50: −log10 of the molar value.
value type: pIC50

CC(=O)NCCCC[C@@H]1NC(=O)[C@H](Cc2c[nH]c3c(C)cccc23)NC(=O)[C@H]([C@@H](C)O)NC(=O)[C@H](CC(N)=O)NC(=O)[C@@H](NC(C)=O)C(C)(C)SSC(C)(C)[C@@H](C(=O)N[C@@H](Cc2ccc(OCCN)cc2)C(=O)N[C@@H](Cc2ccc3ccccc3c2)C(=O)N[C@@](C)(CCCCN)C(=O)N[C@@H](CCCCNC(C)=O)C(=O)N[C@@H](CC(N)=O)C(=O)N[C@H](CC(C)C)C(N)=O)NC1=O: > 9.00
CC(=O)NCCCC[C@@H]1NC(=O)[C@H](Cc2c[nH]c3c(C)cccc23)NC(=O)[C@H]([C@@H](C)O)NC(=O)[C@H](CC(N)=O)NC(=O)[C@@H](NC(C)=O)C(C)(C)SSC(C)(C)[C@@H](C(=O)N[C@@H](Cc2ccc(OCCN)cc2)C(=O)N[C@@H](Cc2ccc3ccccc3c2)C(=O)N[C@@](C)(CCCCN)C(=O)N[C@@H](CCCCNC(C)=O)C(=O)NCCC(=O)NCCC(N)=O)NC1=O: 8.00 to 9.00
CC(=O)NCCCC[C@H](NC(=O)[C@](C)(CC(C)C)NC(=O)[C@H](Cc1ccc2ccccc2c1)NC(=O)[C@H](Cc1ccc(OCCN)cc1)NC(=O)[C@H]1NC(=O)[C@H](CCC(N)=O)NC(=O)[C@H](Cc2c[nH]c3c(C)cccc23)NC(=O)[C@H]([C@@H](C)O)NC(=O)[C@H](CC(N)=O)NC(=O)[C@@H](NC(C)=O)C(C)(C)SSC1(C)C)C(=O)N[C@H](C)C(=O)NCCC(N)=O: 8.00 to 9.00

* * *

Assay: in vitro
Type: in vitro ADME
Design: dose or concentration left out as unconfirmed
Settings: simulated intestinal fluid (SIF) with pancreatin, pH 6.8, 37° C., § matrix is 100 fold dilution of standard SIF concentration, read-out: SIF t½ (converted)
value type: half-life (h)

CC(=O)NCCCC[C@@H]1NC(=O)[C@H](Cc2c[nH]c3c(C)cccc23)NC(=O)[C@H]([C@@H](C)O)NC(=O)[C@H](CC(N)=O)NC(=O)[C@@H](NC(C)=O)C(C)(C)SSC(C)(C)[C@@H](C(=O)N[C@@H](Cc2ccc(OCCN)cc2)C(=O)N[C@@H](Cc2ccc3ccccc3c2)C(=O)N[C@@](C)(CCCCN)C(=O)N[C@@H](CCCCNC(C)=O)C(=O)N[C@@H](CC(N)=O)C(=O)N[C@@H](CC(C)C)C(N)=O)NC1=O: 1

Data origin: patent US20260116921A1
